target: Prostaglandin E2 receptor EP4 subtype (Homo sapiens)
Sequence (P35408 whole entry): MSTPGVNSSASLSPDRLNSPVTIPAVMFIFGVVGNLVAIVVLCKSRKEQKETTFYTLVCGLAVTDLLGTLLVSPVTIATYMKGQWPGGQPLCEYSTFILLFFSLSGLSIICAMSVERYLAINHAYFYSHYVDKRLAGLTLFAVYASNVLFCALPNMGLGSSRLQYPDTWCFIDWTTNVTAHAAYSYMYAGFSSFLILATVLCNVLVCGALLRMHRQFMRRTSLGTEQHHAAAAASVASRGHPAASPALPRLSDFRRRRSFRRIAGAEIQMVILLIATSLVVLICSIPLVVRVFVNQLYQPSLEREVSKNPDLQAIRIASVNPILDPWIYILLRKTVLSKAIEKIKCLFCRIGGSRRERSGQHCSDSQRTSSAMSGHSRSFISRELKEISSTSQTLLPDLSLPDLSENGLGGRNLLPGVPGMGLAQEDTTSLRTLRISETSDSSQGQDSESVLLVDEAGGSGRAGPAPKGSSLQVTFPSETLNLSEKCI
measuredAttribute: Ki

>>> df
                                   compound  measuredattribute     result
0  O=C(O)CC1CCCc2c1n(Cc1ccc(Cl)cc1)c1c(F)cc(F)cc21 (stereo unspecified)                 Ki  > 2900 nM

* * *

biological target: Prostaglandin F2-alpha receptor (Homo sapiens, UniProt P43088)
Sequence (P43088 whole entry): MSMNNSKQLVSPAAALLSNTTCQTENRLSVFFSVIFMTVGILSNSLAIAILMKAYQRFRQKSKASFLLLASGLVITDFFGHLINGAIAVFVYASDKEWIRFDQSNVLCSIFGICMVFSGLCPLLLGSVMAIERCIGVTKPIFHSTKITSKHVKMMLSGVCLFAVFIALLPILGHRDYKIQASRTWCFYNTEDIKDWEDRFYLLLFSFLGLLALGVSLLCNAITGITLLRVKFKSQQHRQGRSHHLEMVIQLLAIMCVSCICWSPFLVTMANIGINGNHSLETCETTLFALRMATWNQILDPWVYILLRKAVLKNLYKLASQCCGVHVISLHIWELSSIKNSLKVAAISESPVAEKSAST
pKi: −log10 of the molar value.
measuredAttribute: pKi

                                   compound  measuredattribute  result
0  CC(O)c1cc(S(C)(=O)=O)cc2c3c(n(Cc4ccc(Cl)cc4)c12)[C@@H](CC(=O)O)CC3 (stereo partly specified)                pKi  < 4.70

* * *

biological target: Prostaglandin D2 receptor (Homo sapiens, UniProt Q13258); test: Binding affinity to DP receptor
Sequence (Q13258 whole entry): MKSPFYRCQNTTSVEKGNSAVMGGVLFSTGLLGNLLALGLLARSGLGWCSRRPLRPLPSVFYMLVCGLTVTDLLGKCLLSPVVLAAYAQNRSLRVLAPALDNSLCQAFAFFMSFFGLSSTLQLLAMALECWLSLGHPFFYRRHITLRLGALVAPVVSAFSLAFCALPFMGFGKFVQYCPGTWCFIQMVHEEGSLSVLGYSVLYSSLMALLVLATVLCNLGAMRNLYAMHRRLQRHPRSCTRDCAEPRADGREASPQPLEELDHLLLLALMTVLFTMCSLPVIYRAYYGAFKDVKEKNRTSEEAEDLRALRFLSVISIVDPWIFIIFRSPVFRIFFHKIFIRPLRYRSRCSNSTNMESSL
Mark True only when Ki stays strictly below 3 nM. Values equal to the cut-off are False.

>>> df
                                   molecule  discretelabel
0  C=Cc1cc(S(C)(=O)=O)cc2c3c(n(Cc4ccc(Cl)cc4)c12)C(CC(=O)O)CC3 (centres undefined)          False
1  O=C(O)CC1CCCc2c1n(Cc1ccc(Cl)cc1)c1c(C(=O)Nc3ccccc3)cccc21 (centres undefined)          False
2  CSc1cccc2c3c(n(Cc4ccc(Cl)cc4)c12)C(CC(=O)O)CCC3 (centres undefined)           True
3  CS(=O)(=O)c1ccc(Cn2c3c(c4cc(S(C)(=O)=O)cc(Br)c42)CCC3CC(=O)O)cc1 (centres undefined)          False
4  C[S+]([O-])c1cccc2c3c(n(Cc4ccc(Cl)cc4)c12)[C@@H](CC(=O)O)CCC3 (single isomer, unassigned; 17)           True
5  CC[S+]([O-])c1cccc2c3c(n(Cc4ccc(Cl)cc4)c12)C(CC(=O)O)CCC3 (centres undefined)          False
6  CC(=O)c1cc(S(C)(=O)=O)cc2c3c(n(Cc4ccc(Cl)cc4)c12)[C@@H](CC(=O)O)CC3           True
7  O=C(O)CC1CCCc2c1n(Cc1ccc(Cl)cc1)c1c([S+]([O-])c3ccccc3)cccc21 (centres undefined)          False
8  O=C(O)CC1CCCc2c1n(Cc1ccc(Cl)cc1)c1c(Br)cccc21 (centres undefined)           True

* * *

Molecular target: Thromboxane A2 receptor (Homo sapiens)
Sequence (P21731 whole entry): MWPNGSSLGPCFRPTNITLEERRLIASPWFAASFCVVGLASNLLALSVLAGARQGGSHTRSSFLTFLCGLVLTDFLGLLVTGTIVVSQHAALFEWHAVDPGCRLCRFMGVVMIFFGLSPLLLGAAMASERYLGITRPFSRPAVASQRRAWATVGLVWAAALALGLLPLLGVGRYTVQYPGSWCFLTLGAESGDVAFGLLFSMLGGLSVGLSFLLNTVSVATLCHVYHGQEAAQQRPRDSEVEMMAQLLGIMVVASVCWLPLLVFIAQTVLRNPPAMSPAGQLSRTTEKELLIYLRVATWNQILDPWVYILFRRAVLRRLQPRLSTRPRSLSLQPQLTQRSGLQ
pKi: −log10 of the molar value.
measuredAttribute: pKi

In [3]: df
Out[3]:
                                   molecule  measuredattribute  result
0  C=Cc1cc(S(C)(=O)=O)cc2c3c(n(Cc4ccc(Cl)cc4)c12)C(CC(=O)O)CC3 (centres undefined)                pKi    6.28
1  CC(O)c1cc(S(C)(=O)=O)cc2c3c(n(Cc4ccc(Cl)cc4)c12)[C@@H](CC(=O)O)CC3 (some centres undefined)                pKi    5.15
2  CC(=O)c1cc(S(C)(=O)=O)cc2c3c(n(Cc4ccc(Cl)cc4)c12)[C@@H](CC(=O)O)CC3                pKi    5.92
3  CC(C)[S+]([O-])c1cccc2c3c(n(Cc4ccc(Cl)cc4)c12)C(CC(=O)O)CCC3 (centres undefined)                pKi    5.74
